System: RXF 631
Protocol notes: NCI tumour cell line growth inhibition, 48 h
Calls of active or inactive are those of the source. Cut-off read from the data, not from the text of the source: active = GI50 up to about 1.1 µM and inactive = higher.
Measure name: GI50

Example entries begin here.
| Compound | Study system | GI50 |
| --- | --- | --- |
| Cc1c(Cl)cccc1NC(=O)c1cccc([N+](=O)[O-])c1O | RXF 631 | 13.8 µM (inactive) |
| CN(C)CCC(=O)N1CCc2c([nH]c3ccccc23)C1c1cccnc1 (stereo not given) | RXF 631 | > 100 µM (inactive) |
| Cc1cc2c(cc1C)[n+]([O-])c(C(=O)C/C(=N/NC(=O)CC#N)C(=O)Nc1ccccc1C(F)(F)F)c(C)[n+]2[O-] | RXF 631 | 16.9 µM (inactive) |
| Cc1cc(NCCCCCCNc2cc(C)nc3ccc(Cl)cc23)c2cc(Cl)ccc2n1 | RXF 631 | > 100 µM (inactive) |

Please examine the following record next.
Task: Could you share which GI50 value was measured for CC12CC(Sc3ccccc3N1)c1ccccc1O2 (stereo not given) ?
Result: 15.1 µM (inactive)
